# experimental system: PDGFRβ (Homo sapiens (Human))
# Sequence (P09619 33-1106): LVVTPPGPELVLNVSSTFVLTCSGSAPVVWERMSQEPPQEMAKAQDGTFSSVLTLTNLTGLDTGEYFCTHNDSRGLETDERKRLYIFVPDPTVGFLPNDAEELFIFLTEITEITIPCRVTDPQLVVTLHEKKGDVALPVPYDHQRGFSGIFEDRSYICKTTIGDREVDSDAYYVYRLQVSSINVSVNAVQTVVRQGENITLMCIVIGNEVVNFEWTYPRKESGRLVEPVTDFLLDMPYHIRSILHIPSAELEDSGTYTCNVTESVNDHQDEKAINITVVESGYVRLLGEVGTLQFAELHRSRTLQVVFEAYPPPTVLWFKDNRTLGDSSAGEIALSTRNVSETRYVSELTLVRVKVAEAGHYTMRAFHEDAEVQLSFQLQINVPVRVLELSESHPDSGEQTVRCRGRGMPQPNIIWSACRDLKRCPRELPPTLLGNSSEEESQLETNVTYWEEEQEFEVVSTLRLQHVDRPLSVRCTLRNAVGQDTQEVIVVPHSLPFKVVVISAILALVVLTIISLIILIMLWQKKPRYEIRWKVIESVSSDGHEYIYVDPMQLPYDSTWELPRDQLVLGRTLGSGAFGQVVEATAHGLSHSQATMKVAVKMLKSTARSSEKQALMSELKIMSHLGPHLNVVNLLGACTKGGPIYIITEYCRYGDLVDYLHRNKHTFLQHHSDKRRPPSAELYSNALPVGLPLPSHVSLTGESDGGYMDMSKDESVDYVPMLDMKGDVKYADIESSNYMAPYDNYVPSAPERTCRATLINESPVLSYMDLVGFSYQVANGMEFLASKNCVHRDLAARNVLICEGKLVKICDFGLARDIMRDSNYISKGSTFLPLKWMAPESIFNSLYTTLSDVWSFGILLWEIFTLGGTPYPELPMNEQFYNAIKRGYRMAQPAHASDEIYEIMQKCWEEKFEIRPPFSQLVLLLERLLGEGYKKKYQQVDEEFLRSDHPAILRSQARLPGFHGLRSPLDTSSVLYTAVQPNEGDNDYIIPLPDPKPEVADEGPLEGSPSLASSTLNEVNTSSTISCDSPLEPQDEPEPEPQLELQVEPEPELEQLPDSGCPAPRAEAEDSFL
# experimental details: PDGF-BB induced phosphorylation of PDGFRβ in fibroblasts (MRC5, HTRF)
# Type: cell-based
# condition label: MRC5 cells, PDGFBB stimulation; read-out: PDGFBB-induced PDGFRβ phosphorylation in MRC5 cells (IC50)
Counter-ions that a name gives are not always drawn.
measurement label: pIC50
For clarity, pIC50 is expressed as the negative log10 of concentration in mol/L.

Please look at this molecule and report its pIC50: CNC(=O)CN1CCN(C(=O)c2ccc(N/C(=C3\C(=O)Nc4cc(C(=O)OC)c(C)cc43)c3ccccc3)cc2)CC1 [Example 11]
8.56

Please look at this molecule and report its pIC50: COC(=O)c1cc2c(cc1C)/C(=C(/Nc1ccc(C(=O)NCC3(N(C)C)CCC3)cc1)c1ccccc1)C(=O)N2 [Example 40]
7.87

Please look at this molecule and report its pIC50: COC(=O)c1cc2c(cc1C)/C(=C(/Nc1ccc(C(=O)NCCN3CCC(F)(F)CC3)cc1)c1ccccc1)C(=O)N2 [Example 23]
7.65

Please look at this molecule and report its pIC50: COC(=O)c1cc2c(cc1C)/C(=C(/Nc1ccc(C(=O)NCCCN(C)C)cc1)c1ccccc1)C(=O)N2 [Example 22]
7.91

Please look at this molecule and report its pIC50: COC(=O)c1cc2c(cc1C)/C(=C(/Nc1ccc(C(=O)NCCN3CCC(CO)CC3)cc1)c1ccccc1)C(=O)N2 [Example 42]
7.83

Please look at this molecule and report its pIC50: COC(=O)c1cc2c(cc1C)/C(=C(/Nc1ccc(C(=O)NCCN3CCC(F)CC3)cc1)c1ccccc1)C(=O)N2 [Example 28, formate]
7.29

Please look at this molecule and report its pIC50: COC(=O)c1cc2c(cc1C)/C(=C(/Nc1ccc(C(=O)N3CCC(O)(CN4CCOCC4)CC3)cc1)c1ccccc1)C(=O)N2 [Example 45]
8.62

Cited source: patent US10669235B2
